Please respond with reported growth for every item in the list.
System: E. coli TESEC Mtb Alr
ASSAY_DETAILS: growth (OD600 after 10 h); higher = more growth (less inhibition)
PROTOCOL_CONDITIONS: arabinose 1000 nM; compound 0.1 mM; raw OD600 reference: median of DMSO wells 0.294, cell-free background 0.041
Counter-ions that a name gives are not always drawn.
Number only, please.

# growth (molecule: CCCCc1cc2ccccc2c(OCCN(C)C)n1 [Dimethisoquin hydrochloride] ) is 0.182

# growth (molecule: Cc1cc(-c2ccccc2)nnc1NCCN1CCOCC1 [Minaprine dihydrochloride] ) is 0.288

# growth (molecule: CCN(CC)CCNc1ccc(CO)c2sc3ccccc3c(=O)c12 [Hycanthone] ) is 0.0851

# growth (molecule: CCN(CC)CCOCCOC(=O)C1(c2ccccc2)CCCC1 [Carbetapentane citrate] ) is 0.275

# growth (molecule: CCCc1nn(C)c2c(=O)[nH]c(-c3cc(S(=O)(=O)N4CCN(C)CC4)ccc3OCC)nc12 [Sildenafil] ) is 0.235

# growth (molecule: CC(C)NCC(O)c1ccc(O)c(O)c1 (single isomer, unassigned; (-)) [(-)-Isoproterenol hydrochloride] ) is 0.289

# growth (molecule: CN(C)CCOC(C)(c1ccccc1)c1ccccn1 (stereo unspecified) [Doxylamine succinate] ) is 0.288

# growth (molecule: c1ccc(CN(CC2=NCCN2)c2ccccc2)cc1 [Antazoline hydrochloride] ) is 0.279

# growth (molecule: COCC(=O)Nc1c(I)c(C(=O)NCC(O)CO)c(I)c(C(=O)N(C)CC(O)CO)c1I (stereo unspecified) [Iopromide] ) is 0.329

# growth (molecule: O=C(O)Cc1cc(I)c(Oc2ccc(O)c(I)c2)c(I)c1 [Tiratricol, 3,3',5-triiodothyroacetic acid] ) is 0.0428

# growth (molecule: COc1cnc(NS(=O)(=O)c2ccc(N)cc2)nc1 [Sulfameter] ) is 0.283

# growth (molecule: CCC(NC(C)C)C(O)c1ccc(O)c(O)c1 (stereo unspecified) [Isoetharine mesylate salt] ) is 0.303

# growth (molecule: Cc1ccc(N(CC2=NCCN2)c2cccc(O)c2)cc1 [Phentolamine hydrochloride] ) is 0.287

# growth (molecule: CCOC(=O)C1=C(C)NC(C)=C(C(=O)OCC)C1c1ccccc1/C=C/C(=O)OC(C)(C)C [Lacidipine] ) is 0.308

# growth (molecule: C[C@H]1C[C@@H]2[C@H]([C@@H](O)C[C@@]3(C)[C@H]2CC[C@]3(O)C(=O)CO)[C@@]2(C)C=CC(=O)C=C12 [Methylprednisolone, 6-alpha] ) is 0.254

# growth (molecule: CC(CN(C)C)CN1c2ccccc2Sc2ccccc21 (stereo unspecified) [Trimeprazine tartrate] ) is 0.221

# growth (molecule: COc1ccc(C(=O)c2ccccc2O)c(O)c1 [Dioxybenzone] ) is 0.116

# growth (molecule: O=C(O)COC(=O)Cc1ccccc1Nc1c(Cl)cccc1Cl [Aceclofenac] ) is 0.205

# growth (molecule: CC1CC(OC(=O)C(O)c2ccccc2)CC(C)(C)N1C (stereo unspecified) [Eucatropine hydrochloride] ) is 0.326

# growth (molecule: O=C1c2c(O)cccc2Cc2cccc(O)c21 [Anthralin] ) is 0.159

# growth (molecule: C[C@]12CCC(=O)C=C1C=C[C@@H]1[C@@H]2CC[C@@]2(C)[C@H]1CC[C@@]21CCC(=O)O1 [Canrenone] ) is 0.139
